# target-desc: Phospholipase D2 (Homo sapiens) (UniProt O14939)
# Sequence (O14939 whole entry, looked up): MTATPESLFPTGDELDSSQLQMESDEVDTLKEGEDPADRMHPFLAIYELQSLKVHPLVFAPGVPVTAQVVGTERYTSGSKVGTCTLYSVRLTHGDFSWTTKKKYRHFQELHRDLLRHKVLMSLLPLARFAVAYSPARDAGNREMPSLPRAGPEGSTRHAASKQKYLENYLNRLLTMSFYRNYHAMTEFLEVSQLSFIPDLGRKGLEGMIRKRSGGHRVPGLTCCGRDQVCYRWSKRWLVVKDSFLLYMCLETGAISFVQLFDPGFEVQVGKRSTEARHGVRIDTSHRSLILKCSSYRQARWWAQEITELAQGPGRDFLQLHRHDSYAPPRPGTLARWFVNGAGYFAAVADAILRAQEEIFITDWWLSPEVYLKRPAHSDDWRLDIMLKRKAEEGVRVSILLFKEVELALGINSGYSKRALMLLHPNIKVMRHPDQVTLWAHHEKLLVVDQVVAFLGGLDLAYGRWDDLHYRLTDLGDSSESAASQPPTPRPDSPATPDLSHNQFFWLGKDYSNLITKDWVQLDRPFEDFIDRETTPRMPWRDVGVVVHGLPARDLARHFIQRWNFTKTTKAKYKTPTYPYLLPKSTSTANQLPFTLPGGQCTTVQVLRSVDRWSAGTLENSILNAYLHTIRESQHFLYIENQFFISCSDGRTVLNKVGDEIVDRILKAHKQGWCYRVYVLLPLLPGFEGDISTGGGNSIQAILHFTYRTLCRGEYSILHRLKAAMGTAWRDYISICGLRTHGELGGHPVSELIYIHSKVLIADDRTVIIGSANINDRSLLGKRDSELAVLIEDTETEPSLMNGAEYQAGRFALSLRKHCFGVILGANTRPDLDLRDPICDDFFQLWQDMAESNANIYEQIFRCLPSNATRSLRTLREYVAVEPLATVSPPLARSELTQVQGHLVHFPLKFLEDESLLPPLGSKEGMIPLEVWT
# Sequence (O14939 whole entry, looked up): as above
# measurement-protocol: PLD2 inhibitors in cells, cell-based, HEK293, single concentration (AID 602143);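 also: tested at 200 nM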
# assay-conditions: HEK293 cellular PLD2 activity, percent of control
The source made the active and inactive calls. Rule as the data show it: active = remaining activity below about 50%; inactive = the rest.
// one of active, inactive, no free text

Check the results log: what was the call for "O=C(NCCN1CCC2(CC1)CNCc1ccccc12)c1ccc2ccccc2c1" ? inactive

Any idea what this test logged for NCCN1CCC(n2c(=O)[nH]c3cc(Cl)ccc32)CC1 (tested in a mixture with another compound) ? inactive

###

The entries below come with measured remaining activity values attached.
# target-desc: Phospholipase D2 (Homo sapiens)
# measurement-protocol: PLD2 inhibitors in cells, cell-based, HEK293, single concentration (AID 602143);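 also: tested at 200 nM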
# assay-conditions: HEK293 cellular PLD2 activity, percent of control; hits give low values
I only need the number, in %, no unit after it.

O=C(NCCN1CC=C(n2nnc3cc(C(F)(F)F)ccc32)CC1)c1cnc2ccccc2c1 :: 114

Now for the molecule whose remaining activity we want.
The recorded remaining activity for entry "CC1(C)[C@@H]2CC[C@@]1(CS(=O)(=O)NCCN1CCC(n3c(=O)[nH]c4ccccc43)CC1)C(=O)C2" equals 79.6

###

# target-desc: Phospholipase D2 (Homo sapiens)
# measurement-protocol: PLD2 inhibitors in cells, cell-based, HEK293, single concentration (AID 602143);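 also: tested at 200 nM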
# assay-conditions: HEK293 cellular PLD2 activity, percent of control; hits give low values
Mark each entry criterion met if its remaining activity sits below 80%, and criterion not met for all others.

CC(C)[C@@H](CN1CCC(n2c(=O)[nH]c3ccccc32)CC1)NC(=O)[C@@H]1C[C@H]1c1ccccc1 :: criterion met

Now take the following molecule into account.
# TODO verify remaining activity < 80% strictly for this molecule: "C[C@@H](CN1CCC(n2c(=O)[nH]c3ccccc32)CC1)NC(=O)c1cc2ccccc2[nH]1" criterion met

###

# target-desc: Phospholipase D2 (Homo sapiens)
# measurement-protocol: PLD2 inhibitors in cells, cell-based, HEK293, single concentration (AID 602143);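 also: tested at 200 nM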
# assay-conditions: HEK293 cellular PLD2 activity, percent of control; hits give low values
measured-quantity: remaining activity (%)
Write the value in % as a bare number.

O=C(NCCN1CCC(n2c(=O)[nH]c3ccccc32)CC1)C1CCc2ccccc2C1 (centres undefined) :: 103
O=C(NCCN1CCC2(C=Cc3ccccc32)CC1)[C@H]1C[C@@H]1c1ccccc1 :: 130
C[C@@H](CN1CCC2(CCc3ccccc32)CC1)NC(=O)c1ccc2ccccc2c1 :: 104
O=C(N[C@@H](Cc1ccccc1)CN1CCC(n2c(=O)[nH]c3ccccc32)CC1)c1ccc2ccccc2c1 :: 96.7
CS(=O)(=O)N1CC2(CCN(CCNC(=O)c3cnc4ccccc4c3)CC2)c2ccccc21 :: 83.7
C[C@@H](CN1CCC2(CC1)CCN(C)C2=O)NC(=O)c1ccc2ccccc2c1 :: 135
CCNC(=S)NCCN1CCC(n2c(=O)[nH]c3ccccc32)CC1 :: 78.2
COc1ccc2c(c1)c(CC(=O)NCCN1CCC(n3c(=O)[nH]c4ccccc43)CC1)c(C)n2C(=O)c1ccc(Cl)cc1 :: 73.8

Alright, here's another compound for you.
Lab note: NC1(CN2CCC(c3nc4ccccc4[nH]3)CC2)CCCC1 (tested in a mixture with another compound) gave remaining activity of 105

###

# target-desc: Phospholipase D2 (Homo sapiens)
# measurement-protocol: PLD2 inhibitors in cells, cell-based, HEK293, single concentration (AID 602143);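 also: tested at 200 nM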
# assay-conditions: HEK293 cellular PLD2 activity, percent of control; hits give low values
Activity calls are given as the source filed them. Rule as the data show it: active = remaining activity below about 50%; inactive = the rest.
measured-quantity: remaining activity

Recorded remaining activity, per entry:
COc1cccc(C(=O)NCCN2CCC(n3c(=O)[nH]c4ccccc43)CC2)n1 :: 72.5% (inactive)
O=C(NCCN1CCC2(CCc3ccccc32)CC1)c1ccc2ccccc2c1 :: 124% (inactive)
C[C@@H](CN1CCC(n2c(=O)[nH]c3cc(I)ccc32)CC1)NC(=O)C1CC1c1ccccc1 (some centres undefined) :: 99.2% (inactive)
CC(C(=O)NCCN1CCC(n2c(=O)[nH]c3ccccc32)CC1)(c1ccccc1)c1ccccc1 :: 65.3% (inactive)
Cc1ccc(C(=O)NCCN2CCN(c3ncccn3)CC2)cc1 :: 85.6% (inactive)

For the next question, use this compound.
Sample "O=C(NCCN1CCC(n2c(=O)[nH]c3cc(Cl)ccc32)CC1)c1ccc2ccccc2c1" ; remaining activity observed: 63.9% (inactive)

###

# target-desc: Phospholipase D2 (Homo sapiens)
# measurement-protocol: PLD2 inhibitors in cells, cell-based, HEK293, single concentration (AID 602143);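 also: tested at 200 nM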
# assay-conditions: HEK293 cellular PLD2 activity, percent of control
Calls of active or inactive are those of the source. Rule as the data show it: active = remaining activity below about 50%; inactive = the rest.
Would you mind answering with one of these outcomes? active, inactive

Example results:
O=C1Cc2cc(CCN3CCN(c4nsc5ccccc45)CC3)c(Cl)cc2N1 :: inactive
O=C(NCCN1CCC(n2c(=O)[nH]c3ccc(F)cc32)CC1)c1ccc(Cl)c(Cl)c1 :: active
Cn1c(=O)n(C2CCN(CCNC(=O)c3ccc4ccccc4c3)CC2)c2ccccc21 :: inactive
Cn1c(C2CCN(CCN)CC2)nc2ccccc21 (tested in a mixture with another compound) :: inactive
O=C(NCCN1CCC2(CC1)CCN(c1ccccc1)C2=O)c1ccc2ccccc2c1 :: inactive
O=C(NCCN1CCN(c2ccccn2)CC1)c1ccc(Cl)cc1 :: inactive
O=C(NCCN1CCC2(CCc3ccccc32)CC1)c1cnc2ccccc2c1 :: inactive
O=C(CCc1ccc(F)cc1)NCCN1CCC(n2c(=O)[nH]c3ccccc32)CC1 :: inactive
C[C@H](CN1CCC(n2nnc3ccccc32)CC1)NC(=O)c1ccc2ccccc2c1 :: active
Cn1c(=O)n(C2CCN(CCNC(=O)c3ccc(F)cc3)CC2)c2ccccc21 :: inactive

Hi, do you know how "O=C(NCCN1CCN(c2ccncc2)CC1)c1ccc(F)cc1O" came out in this test? inactive

Identify the outcome logged in this assay for the compound shown: "C[C@@H](CN1CCC(n2c(=O)[nH]c3ccccc32)CC1)NC(=O)CSc1ccccc1" inactive

Name the outcome recorded for "C[C@@H](CN1CCC(n2c(=O)[nH]c3ccccc32)CC1)NC(=O)c1ccc[nH]1" in the assay. active

In this assay, the call recorded for "O=C(NCCN1CCC(n2c(=O)[nH]c3ccccc32)CC1)c1ccc2c(c1)CCCC2" was what? inactive

Which outcome was assigned to "C[C@@H](CN1CC=C(n2c(=O)[nH]c3ccccc32)CC1)NC(=O)[C@H]1C[C@@H]1c1ccccc1" in this test? inactive

Hey, what did the test say about "O=C(NCCN1CCC(n2c(=O)[nH]c3ccccc32)CC1)c1ccc(Cc2ccccc2)cc1" ? inactive

Please state the recorded outcome for this compound: "O=c1[nH]c2ccccc2n1C1CCN(CCNS(=O)(=O)c2ccc(Cl)cc2)CC1" inactive

Hi team, can someone confirm the assay call for "COc1cccc(N2CCN(CCNC(=O)c3ccc4ccccc4c3)CC2)c1" ? inactive

Returns: the outcome recorded for C[C@@H](CN1CCC2(CNCc3ccccc32)C1)NC(=O)c1ccc2ccccc2c1 (some centres undefined) in this assay. inactive

Write down the call the test reported for this compound. Item: "C[C@@H](CN1CCC2(C=Cc3ccccc32)CC1)NC(=O)c1cnc2ccccc2c1" inactive

Each compound tested received a call. Report the one for "CC1(C)[C@H]2CC[C@]1(CS(=O)(=O)NCCN1CCC(n3c(=O)[nH]c4ccccc43)CC1)C(=O)C2" . inactive

Check the results log: what was the call for "O=C(NCCN1CCC(C(=O)NCCCN2CCOCC2)CC1)c1ccc2ccccc2c1" ? inactive

Dear colleague, could you share the recorded outcome for "O=C(c1ccc2ccccc2c1)N1CCC(n2c(=O)[nH]c3cc(Cl)ccc32)CC1" when you have a moment? inactive

Check the results log: what was the call for "COc1ccc(S(=O)(=O)NCCN2CCC(n3c(=O)[nH]c4ccccc43)CC2)cc1OC" ? inactive

What classification did "CS(=O)(=O)N1CC2(CCN(CCNC(=O)c3ccc4ccccc4c3)CC2)c2ccccc21" end up with in this test? inactive

Just curious, what result did "O=C(NCCN1CCC(n2c(=O)[nH]c3ccccc32)CC1)c1ccc(-c2ccccc2)o1" get here? inactive

Dear all, I need the recorded test outcome for "O=C(CCc1ccccc1)NCCN1CCC(n2c(=O)[nH]c3ccccc32)CC1" , thank you. inactive

Record request — test call for "O=c1[nH]c2ccccc2n1C1CCN(CCNS(=O)(=O)c2cc(Cl)ccc2Cl)CC1" inactive

Any idea what this test logged for "O=C(NCCN1CCC(n2c(=O)[nH]c3ccccc32)CC1)C1CCCCCC1" ? inactive

###

# target-desc: Phospholipase D2 (Homo sapiens) (UniProt O14939)
# measurement-protocol: PLD2 inhibitors in cells, cell-based, HEK293, single concentration (AID 602143);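 also: tested at 200 nM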
# assay-conditions: HEK293 cellular PLD2 activity, percent of control; hits give low values
The source made the active and inactive calls. No stated cut-off is given here; in the data, active means remaining activity below about 50%; inactive means the rest.
measured-quantity: remaining activity

Use these answered entries as a reference point.
O=C(NCCN1CCC2(CC1)CNc1ccccc12)c1cnc2ccccc2c1 :: 90% (inactive)
Cc1cc(C)c(S(=O)(=O)NCCN2CCC(n3c(=O)[nH]c4ccccc43)CC2)c(C)c1 :: 98.8% (inactive)
O=c1[nH]c2ccccc2n1C1CCN(CCNS(=O)(=O)c2ccc(OC(F)(F)F)cc2)CC1 :: 81% (inactive)
C[C@H](N)CN1CCC(c2nc3ccccc3n2C)CC1 (tested in a mixture with another compound) :: 81.2% (inactive)
CN(C)c1cccc2c(S(=O)(=O)NCCN3CCC(n4c(=O)[nH]c5ccccc54)CC3)cccc12 :: 112% (inactive)
O=C(NCCN1CCC(n2c(=O)[nH]c3ccccc32)CC1)c1ncccn1 :: 90.1% (inactive)
O=C(NCCN1CCC(c2nc3ccccc3[nH]2)CC1)C1CC1c1ccccc1 (stereo not given) :: 95.6% (inactive)
O=C(NCCN1CCC2(CC1)CCN(c1ccccc1)C2=O)c1cnc2ccccc2c1 :: 42.3% (active)

Sure, the documented remaining activity for "C[C@@H](CN1CCC2(CCc3ccccc32)CC1)NC(=O)c1cnc2ccccc2c1" is 108% (inactive)

molecule "C[C@@H](CN1CCC(n2c(=O)[nH]c3cc(-c4cccnc4)ccc32)CC1)NC(=O)[C@H]1C[C@@H]1c1ccccc1" , remaining activity observed: 72.1% (inactive)

// field: remaining activity; key: "Cc1ccc(C(=O)NCCN2CCN(c3ccncc3)CC2)cc1" ; value = 114% (inactive)

Reported remaining activity of "O=C(NCCN1CCC(n2c(=O)[nH]c3ccccc32)CC1)c1ccc2ccc3c4c2c1CC=C4CC=C3" : 79.2% (inactive)

Briefly, remaining activity measured for "O=C(NCCN1CCC(n2c(=O)[nH]c3ccccc32)CC1)C1(c2ccccc2)CCC1" : 86.3% (inactive)

Data point: "O=C(NCCN1CCC(n2c(=O)[nH]c3ccccc32)CC1)N1c2ccccc2C=Cc2ccccc21" ; remaining activity = 66.5% (inactive)

What the record says about "O=C(NCCN1CCC2(CC1)CNc1ccccc12)c1ccc2ccccc2c1" : remaining activity is 61.8% (inactive)

Reported remaining activity of "Nc1ccc(C(=O)NCCN2CCC(n3c(=O)[nH]c4ccccc43)CC2)cc1OC(F)(F)F" : 76.5% (inactive)

Just so you know, measured remaining activity for "COc1ccc(S(=O)(=O)NCCN2CCC(n3c(=O)[nH]c4ccccc43)CC2)cc1" came out at 127% (inactive)

According to the records, this molecule "O=C(NCCN1CCC(n2c(=O)[nH]c3ccccc32)CC1)Nc1ccccc1C(F)(F)F" displays remaining activity of 114% (inactive)

In plain terms, "C[C@@H](CN1CCC(n2c(=O)[nH]c3cc(F)ccc32)CC1)NC(=O)c1ccc(F)c(F)c1" has a documented remaining activity of 85.2% (inactive)

GET /value?item= "O=C(NCCN1CCC(n2c(=O)[nH]c3ccccc32)CC1)N1c2ccccc2Sc2ccccc21" &field=remaining activity returns 111% (inactive)
